meta.source: paper PMC13043311

Target: T1, TLR7 WT (mmTLR7) (Macaca mulatta, UniProt B3Y653 27-839)
T1 sequence: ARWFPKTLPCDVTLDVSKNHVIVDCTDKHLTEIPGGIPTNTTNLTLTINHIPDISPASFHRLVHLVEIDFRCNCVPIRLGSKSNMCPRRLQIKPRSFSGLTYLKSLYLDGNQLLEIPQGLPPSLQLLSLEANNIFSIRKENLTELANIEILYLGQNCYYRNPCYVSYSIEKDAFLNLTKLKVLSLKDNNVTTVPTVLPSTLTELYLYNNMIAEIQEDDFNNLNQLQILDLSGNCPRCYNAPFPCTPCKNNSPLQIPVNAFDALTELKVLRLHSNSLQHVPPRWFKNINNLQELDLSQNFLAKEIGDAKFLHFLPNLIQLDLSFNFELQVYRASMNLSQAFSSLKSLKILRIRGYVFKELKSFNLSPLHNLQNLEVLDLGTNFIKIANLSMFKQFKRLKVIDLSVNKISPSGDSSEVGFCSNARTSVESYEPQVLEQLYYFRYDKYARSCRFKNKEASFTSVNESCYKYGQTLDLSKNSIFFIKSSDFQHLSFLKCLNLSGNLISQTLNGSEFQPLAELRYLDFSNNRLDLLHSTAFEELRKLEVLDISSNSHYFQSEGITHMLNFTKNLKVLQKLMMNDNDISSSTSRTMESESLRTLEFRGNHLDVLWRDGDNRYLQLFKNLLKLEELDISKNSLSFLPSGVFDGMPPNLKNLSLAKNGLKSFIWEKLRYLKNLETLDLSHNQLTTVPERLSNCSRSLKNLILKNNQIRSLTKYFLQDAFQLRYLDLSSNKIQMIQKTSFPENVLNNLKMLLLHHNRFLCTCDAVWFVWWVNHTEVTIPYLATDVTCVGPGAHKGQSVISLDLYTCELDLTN
Assay: SPR; average stated in text; table runs 38±2, 32±2, 30±1, 20±11, 11±1 (mean 26.2); SPR with recombinant TLR7/TLR8; buffer, pH and temperature not in the material
Settings: protein: recombinant; chain copies: 2; single-stranded
VALUE_TYPE: pKd
Scale explanation: pKd corresponds to minus log10 of a concentration expressed in moles per litre.

Sample GAG (XNA, 2'-OMe G1, 2'-OMe A2, DNA G3; phosphorothioate linkages, stereo-random) [GAG-v1 PS (mGmAdG)] ; pKd observed: 4.69
